target-of-assay: Follistatin (Homo sapiens)
protocol-description: follistatin binders on small-molecule microarrays, primary screen, biochemical, small-molecule microarray, 635/667 nm fluorescence (AID 1132)
condition-summary: FST binding, 635 nm fluorescence, higher = more signal
quantity: composite z-score

• COc1cccc(C)c1NC(=O)O[C@H]1[C@H](OC(=O)Nc2ccccc2)[C@@H](OC(=O)Nc2ccccc2)[C@@H](OC)O[C@@H]1CO = 1.38
• COC(=O)C(CC#Cc1ccc2c(c1)[C@]1(C(=O)N2)[C@H](C(=O)N2CCCCCCC2)[C@H]2C(=O)O[C@H](c3ccccc3)[C@H](c3ccccc3)N2[C@@H]1c1ccc(OCCO)cc1)C(=O)OC = 1.49
• CC(C)(C)OC(=O)CC[C@]1(C(N)=O)N=C(c2ccc(OCCCO)cc2)O[C@H]1c1ccccc1N=[N+]=[N-] = 1.2
• O=C(CS)NCCCCCCNC(=O)[C@H]1C[C@H]2C(=O)NCC(=O)N2[C@H]1c1cccc(OCCO)c1 = 1.35
• C=CC[C@]1(C(=O)NCCN2CCOCC2)N=C(c2ccc(OCCCO)cc2)O[C@H]1c1ccccc1 = 1.44
• COc1ccc(C(O)C2C=CC3C(=O)N(c4ccccc4)C(=O)C3N2Nc2ccccc2F)c2ccccc12 (configuration not stated) = 1.33
• C=C(C(=O)CC[C@@H](OC(=O)c1ccccc1-c1ccccc1C(=O)O)c1ccc(CO)o1)C(C)C = 1.39

---

Test system: Chordin-like protein 2 (CHRDL2)
protocol-description: CHRDL2 small-molecule binders, primary screen, biochemical, small-molecule microarray, 635 nm fluorescence (AID 1126);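 note: printed compound slides probed with Chrdl2 protein at 4 µg/mL for 1 h at 4 C; score merges 667 nm emission intensity with signal to noise over three replicate slides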
condition-summary: small-molecule microarray binding, fluorescence 635 nm; higher = more signal
Here the recorded composite z-score is given for each entry.
quantity: composite z-score

- O=C1NC(=O)C2C1C=CC(C(O)c1ccc(F)cc1)N2Nc1ccc(Cl)cc1Cl (configuration not stated): -0.242
- COCCOC(=O)N1C(=O)[C@@]2(c3cc(C#CCC(C(=O)OC)C(=O)OC)ccc31)[C@H](C(N)=O)[C@H]1C(=O)O[C@H](c3ccccc3)[C@H](c3ccccc3)N1[C@@H]2c1ccccc1OCCO: 1.1
- CC(C)Cc1ccc(CN2CC[C@@H](NC(=O)c3ccccc3)C2)cc1: 0.345
- COc1ccc([Si](C)(C)[C@@H]2[C@@H](CC(=O)N3CCC[C@H]3CO)O[C@]3(C(=O)N(Cc4cccc(N5C(=O)c6cccc7cccc5c67)c4)c4ccccc43)[C@H]2C)cc1: 0.568
- Cc1ccc(S[C@]2(C(=O)NCC(C)C)CC(=O)N(C(C)C)[C@@H]2c2ccc(CO)cc2I)cc1: -0.802
- O=C1O[C@H](c2ccccc2)[C@H](c2ccccc2)N2[C@H]1[C@@H](C(=O)Nc1nc3ccccc3s1)[C@]1(C(=O)Nc3ccccc31)[C@H]2c1ccccc1OCCO: -0.131
- Cc1ccc(S[C@]2(C(=O)NC(C)C)CC(=O)N(Cc3ccccc3)[C@@H]2c2ccc(CO)cc2I)cc1: -2.55

---

Here the recorded z-score is given for each entry.
protocol-description: basal MM1S mitochondrial membrane potential changes, profiling panel, cell-based, JC-1 fluorescence, 24 h, 100 nL compound (AID 1170); note: test concentration not given here
condition-summary: higher = more signal
quantity: z-score

* COC(=O)[C@@]1(Cc2ccc(F)cc2)[C@H]2c3cc(C(=O)N4CCCC4)n(Cc4ccc(C(F)(F)F)nc4)c3C[C@H]2CN1C(=O)c1ccccc1 | -0.873
* COC(=O)c1c2oc(c1C(=O)OC)C(=O)N[C@H](Cc1ccccc1)Cn1cc(nn1)C1(CCCCC1)NC(=O)N[C@H](CO)CC2 | -1.2
* O=C(NC1CC1)[C@@H]1c2ccccc2C(=O)N(C2CCCCC2)[C@H]1c1ccc(CO)cc1 | -0.256
* COc1cccc(C)c1NC(=O)O[C@H]1[C@H](OC(=O)Nc2ccc3c(c2)OCO3)[C@H](OC(=O)Nc2ccc3c(c2)OCO3)[C@@H](OC)O[C@@H]1CO | -0.724
* C=C(COC)C(=O)CC[C@@H](OC(=O)c1ccccc1-c1ccccc1C(=O)O)c1ccccc1OCCO | -1.84
* CC(C)N1CC=CC23O[C@@H]4/C=C\CCCOC(=O)C4[C@H]2C(=O)N(C(C)CO)[C@@H]3C1=O (stereo partly drawn) | -1.08
* CC[C@H]1C2=C3C(CC[C@H]4C(OCc5ccc(F)cc5C(F)(F)F)OC[C@](C)([C@@H]34)N(C(=O)OC(C)(C)C)C2)C(COC(C)=O)C1COC(C)=O (stereo partly drawn) | -1.29
* COC(=O)C(CC#Cc1ccc2c(c1)[C@]1(C(=O)N2)[C@H](C(=O)NC[C@H](O)c2ccccc2)[C@H]2C(=O)O[C@H](c3ccccc3)[C@H](c3ccccc3)N2[C@@H]1c1ccc(O)cc1)C(=O)OC | -0.492
* C=CCN1C(=O)[C@]2(O[C@H](CCO)[C@@H]([Si](C)(C)c3ccc(OC)cc3)[C@@H]2C)c2cc(N3C(=O)c4ccccc4Oc4ccccc43)ccc21 | -2.15
* CN1C(=O)C2CC=C(C3=CCO[C@@H]3[C@H]3CCCN3S(=O)(=O)c3ccccc3[N+](=O)[O-])CC2C1=O (stereo partly drawn) | -0.242
* COCCOC(=O)N1C(=O)[C@@]2(c3ccccc31)[C@H](C(=O)Nc1nc3ccccc3s1)[C@H]1C(=O)O[C@H](c3ccccc3)[C@H](c3ccccc3)N1[C@@H]2c1ccccc1OCCO | -0.61
* O=C1O[C@H](c2ccccc2)[C@H](c2ccccc2)N2[C@H]1[C@@H](C(=O)N1CCN(c3ncccn3)CC1)[C@]1(C(=O)Nc3ccc(C#CC4(O)CCCCCC4)cc31)[C@H]2c1ccc(O)cc1 | 0.18
* O=C1N(Cc2ccccc2)c2ccccc2C[C@@]12N=C(c1ccc(OCCCO)cc1)O[C@H]2c1ccccc1 | 0.811
